Listed compounds paired with reported TGI
Test system: HCT-15 colon
MEASUREMENT DESCRIPTION: NCI tumour cell line growth inhibition, 48 h
READOUT NAME: TGI

{"columns": ["COMPOUND", "READOUT NAME", "RESULT"],
 "data": [
  ["Cc1nn(-c2ccc(S(=O)(=O)[O-])cc2)c([O-])c1N=[N+](C)c1ccc(-c2ccc(N=Nc3ccc4c(S(=O)(=O)[O-])cc(S(=O)(=O)[O-])c(N)c4c3[O-])c([O-])c2)cc1[O-].[Cu+2].[Cu+2].[Na+]", "TGI", "> 100 µM"],
  ["CSC1=NC=CCN1C", "TGI", "> 100 µM"],
  ["C[C@@H]1CC[C@H]2C(COCC3=C(C(F)(F)F)O[C@@H]4O[C@@]5(C)CC[C@H]6[C@H](C)CC[C@@H]3[C@@]46OO5)=C(C(F)(F)F)O[C@@H]3O[C@@]4(C)CC[C@@H]1[C@]32OO4", "TGI", "> 100 µM"],
  ["CCc1c2c(nc3cc4c(cc13)OCO4)-c1cc3c(c(=O)n1C2)COC(=O)[C@]3(O)CC", "TGI", "> 100 µM"],
  ["Cc1ccc(-c2c(N)nc(NC#N)nc2CCC(=O)Nc2ccccc2[N+](=O)[O-])cc1", "TGI", "> 100 µM"],
  ["N#Cc1c(N)[nH]c(=S)c(C#N)c1-c1cccc(Cl)c1", "TGI", "> 100 µM"],
  ["CCCCCCCCCCCCCC(=S)NCCCC[C@H](NC(=O)OCc1ccccc1)C(=O)Nc1ccccc1", "TGI", "> 100 µM"],
  ["CCN(CC)CCn1c2cc3c(cc2c(=O)c2cccnc21)OCCO3", "TGI", "> 10 µM"],
  ["COc1cc(-n2cc(-c3ccc(Cl)c(Cl)c3)nc2SCc2ccccc2)cc(OC)c1OC", "TGI", "> 100 µM"],
  ["CCn1cc(C(c2ccc(Cl)cc2)n2ccnc2)c2cc(Br)ccc21 (stereo not given)", "TGI", "30.6 µM"],
  ["CCOC(=O)C1=C(C)Nc2ccccc2S1", "TGI", "> 100 µM"],
  ["O=c1c2ccccc2[nH]c(=S)n1-c1ccc(N=Nc2cccc3c(O)cccc23)cc1", "TGI", "> 100 µM"],
  ["N#C/C(=C\\NC(=S)Nc1ccc(S(=O)(=O)Nc2ccccn2)cc1)C(N)=O", "TGI", "> 100 µM"],
  ["FC(F)(F)c1nc(-c2ccccc2Cl)[nH]c1C(F)(F)F", "TGI", "3.52 µM"],
  ["Cc1ccc2c(c1)nc(N)n[n+]2[O-]", "TGI", "> 100 µM"],
  ["Cc1[nH]c(/C=C2\\C(=O)Nc3ccc(S(=O)(=O)Cc4c(Cl)cccc4Cl)cc32)c(C)c1C(=O)N1CCC[C@@H]1CN1CCCC1", "TGI", "3.51 µM"],
  ["CC(=O)OCC1OC(O[C@@H]2C[C@H]3C(C)(C)[C@H](OC(C)=O)CC[C@]3(C)[C@H]3CCC4=C([C@@H](C)C[C@@H](O)[C@H](O)C(C)(C)O)CC[C@@]4(C)[C@@]32C)C(O)C(O)C1O (stereo not given in full)", "TGI", "30.8 µM"],
  ["COc1ccc(-c2cc(-c3cc(Cl)ccc3Cl)nc3[nH]c(-c4cc(F)c(Cl)cc4Cl)cc(=O)c23)cc1", "TGI", "56.1 µM"],
  ["COc1ncc(C=C(C#N)C#N)c(OC)n1", "TGI", "> 100 µM"],
  ["Oc1ccccc1C(c1cc2c(cc1O)OCO2)N1CCOCC1 (stereo not given)", "TGI", "36.8 µM"],
  ["O=c1c2c3ccccc3[nH]c2c2cccc3c2n1CCC3", "TGI", "> 100 µM"],
  ["COc1ccc(-c2nn(-c3cccc(Cl)c3)cc2C2CC(c3ccccc3)=NN2C(C)=O)cc1 (stereo not given)", "TGI", "> 100 µM"],
  ["CC1(C)CC2(C)CC1CC2O (stereo not given)", "TGI", "> 100 µM"],
  ["CC12CC(c3ccccc3O1)C(C(=O)Nc1ccc(F)cc1)C(=O)N2 (stereo not given)", "TGI", "> 100 µM"],
  ["CN=C(N)N/N=C(\\c1ccccc1)c1ccc(Br)cc1", "TGI", "7.24 µM"],
  ["COc1ccc(-c2c(C#N)c(N)n(C3OC(CO)C(O)C(O)C3O)c(=S)c2C#N)cc1 (stereo not given)", "TGI", "> 100 µM"],
  ["Fc1cccc(COc2ccc(Nc3ncncc3C#Cc3ccccc3)cc2Cl)c1", "TGI", "> 25 µM"],
  ["CCCN=C1CC(C)Nc2ccccc2N1 (stereo not given)", "TGI", "> 100 µM"],
  ["COC(=O)c1cc(CC(C)C)c2c(c1)[nH]c1ccccc12", "TGI", "> 100 µM"],
  ["COC(=O)C1=C(C(=O)OC)C2OC1C1C2C2(C)C(C)=C(C)C1(C)S2=O (stereo not given)", "TGI", "20.5 µM"]
]}

====

System: MDA-MB-435
MEASUREMENT DESCRIPTION: NCI tumour cell line growth inhibition, 48 h

{"columns": ["COMPOUND", "TARGET DESC", "TGI"],
 "data": [
  ["N#Cc1c(NC(=S)NC(=O)c2ccccc2)nc2c(c1-c1ccccc1)CCC2", "MDA-MB-435", "> 100 µM"],
  ["CC(C)(C)C(=O)C(CC(=O)c1ccccc1)C(=O)C(C)(C)C", "MDA-MB-435", "> 100 µM"],
  ["c1cc2nnc1SCCSCCSc1ccc(nn1)SCCSCCS2", "MDA-MB-435", "> 100 µM"],
  ["COC(=O)C1OC(O[C@H]2CCC3(C)C(CCC4(C)C3CC=C3C5CC(C)(C)CCC5(C(=O)O)CC[C@]34C)C2(C)C)C(O)C(OC2OC(CO)C(O)C(O)C2O)C1O (some centres undefined)", "MDA-MB-435", "> 33.3 µM"],
  ["CSc1nc(SC)c2c(CN=[N+]=[N-])c(Br)n(Cc3ccccc3)c2n1", "MDA-MB-435", "> 100 µM"],
  ["CC(=O)OCC1OC(N2C(=O)/C(=C\\c3ccc(Cl)cc3)C(N)=Nc3ccccc32)C(OC(C)=O)C(OC(C)=O)C1OC(C)=O (centres undefined)", "MDA-MB-435", "30.7 µM"],
  ["O=C1CC(c2ccco2)C2(C(=O)NC(=O)NC2=O)C(c2ccco2)C1 (centres undefined)", "MDA-MB-435", "> 75 µM"],
  ["CCCCN(CC)c1nc(C)nc2c1c(C)c(C)n2-c1c(C)cc(C)cc1C", "MDA-MB-435", "33.3 µM"],
  ["O=c1cc(-c2cccc(F)c2)[nH]c2cc3c(cc12)OCO3", "MDA-MB-435", "0.0211 µM"]
]}

====

System: NCI-H522 lung
MEASUREMENT DESCRIPTION: NCI tumour cell line growth inhibition, 48 h
Quick list: TGI per entry.

{"columns": ["COMPOUND", "TARGET DESC", "LIMIT OPERATOR", "TGI (µM)"],
 "data": [
  ["Cc1cc2c(c(C(=O)NCCC(=O)O)c1)Oc1c(cc(C)cc1C(=O)NCCC(=O)O)S2", "NCI-H522 lung", ">", 100],
  ["COc1ccc(C(=S)N2CCN(c3cccc(Cl)c3)CC2)cc1", "NCI-H522 lung", ">", 100],
  ["CC(C)(C)OC(=O)NC(Cc1ccccc1)C(=O)OCN1C(=O)C2C3C=CC(C2C1=O)C1C2C(=O)N(COC(=O)C(Cc4ccccc4)NC(=O)OC(C)(C)C)C(=O)C2C31 (stereo not drawn)", "NCI-H522 lung", "=", 85],
  ["O=C(c1cccs1)c1c(C(F)(F)F)n([O-])c2ccccc2[n+]1=O", "NCI-H522 lung", "=", 1.54],
  ["COc1cc(-n2cc(-c3ccc(Cl)c(Cl)c3)nc2SCc2ccccc2)cc(OC)c1OC", "NCI-H522 lung", ">", 100],
  ["CCOC(=O)CCC(NC(=O)c1ccc(OCc2nc3cc(C(F)(F)F)ccc3nc2-c2ccccc2)cc1)C(=O)OCC (stereo not drawn)", "NCI-H522 lung", ">", 100],
  ["O=C(CSc1nc2ccc([N+](=O)[O-])cc2[nH]1)Nc1ccc(F)c(Cl)c1", "NCI-H522 lung", "=", 12.4],
  ["CN=C(N)N/N=C(\\c1ccccc1)c1ccc(Br)cc1", "NCI-H522 lung", "=", 0.616]
]}

====

Listing: TGI of selected compounds
Test system: HCC-2998 colon
MEASUREMENT DESCRIPTION: NCI tumour cell line growth inhibition, 48 h

{"columns": ["COMPOUND", "LIMIT OPERATOR", "TGI / µM"],
 "data": [
  ["CC(=O)c1ccc(Nc2cc(-c3ccccc3)nc3c(O)cccc23)cc1", "=", 36.7],
  ["CCOC(=O)C1=C(C)Nc2ccccc2S1", ">", 100],
  ["CCN1CCN(c2nc(NCCCNc3ccnc4cc(Cl)ccc34)c3ccccc3n2)CC1", "=", 6.09],
  ["CO[C@@H](C(=O)OC1C=CC2(CC1)C(=O)N(C)c1ccccc12)c1ccccc1 (stereo not given in full)", ">", 100],
  ["Nc1n[nH]c(=O)[nH]1", ">", 100]
]}
